testSystem: human MAL (human) (UniProt P58753)
experimentalDetails: P8 phage display panning on plate-immobilised MAL, after round 4, NGS
Hi! Just check whether Population is below 4%. Below gives criterion met, equal or above gives criterion not met.

Data request: A record lists `RNFVAYLFQALANKGI` . Is its Population below 4%?
Data returned: criterion not met

Data request: Below 4% on Population? Entry `YFLHFLLFSRPETEYI`
Data returned: criterion not met

Data request: Consider the binder `WALQELVKILQAKIFL` . Is its Population strictly less than 4%?
Data returned: criterion met

Data request: Report whether reported Population is lower than 4% (strictly) for `LFFWESLKQLLRSDGR`
Data returned: criterion not met

Data request: is_below(Population, 4%) for `KLIQGWFLYRLLKIEQ` ?
Data returned: criterion met

Data request: Given `FTLAVHVRNWLVGGFI` , is recorded Population strictly lower than 4%?
Data returned: criterion met

Data request: Field: below-cutoff. Rule: recorded Population strictly less than 4%. Subject: `TFLGHLYNALVQAGIH`
Data returned: criterion not met

Data request: Check if Population falls below 4% for `WFLTAFRMAMDQVADT` .
Data returned: criterion met

Data request: Would you kindly verify if Population of `AWALHQLQQIINWHET` is strictly less than 4%?
Data returned: criterion met

Data request: API: query returns whether the binder falls strictly under 4% in Population. Query: `AFFWEQLRTVLGKPTM`
Data returned: criterion met

Data request: Determine whether this binder shows Population lower than 4% (ties excluded): `DTKLKKGESIAPELLR`
Data returned: criterion met

Data request: Does the reported Population of `SLLYDHLRWLGIRAFL` stay below 4%?
Data returned: criterion met
